Data origin: patent US6380218B1

Reported values of melting point for individual entries

In the examples that follow, each entry is paired with its recorded melting point.
> print(dat)
                                   molecule  reportedproperty      datavalue
1  Cc1noc2c(Oc3ncccc3C(=O)NCC3CCC(C(C)(C)O)CC3)cccc12 (stereo not drawn) [Example 317]     melting point  170 to 172 °C
2  COc1ccc(CNC(=O)c2cccnc2Oc2cccnc2)cc1 [Example 29]     melting point    62 to 64 °C
3  C[C@H](NC(=O)c1cccnc1Oc1ccc(F)cc1)c1cccs1 [Example 6]     melting point    59 to 61 °C
4  CC(NC(=O)c1cccnc1Oc1ccc(F)cc1)c1ccc(Br)cc1 (stereo not drawn) [Example 82]     melting point  120 to 122 °C
5  O=C(CCc1ccccc1)c1cccnc1Oc1cccnc1 [Example 257]     melting point    45 to 46 °C

Next, consider the following molecule.
The recorded melting point for O=C(NCc1cccs1)c1cccnc1Oc1ccc(F)cc1 [Example 1] is 89 to 91 °C

###

reportedProperty: melting point

In the examples that follow, each entry is paired with its recorded melting point.
> print(dat)
                                   compound      datavalue
1  NS(=O)(=O)N1CCC(CNC(=O)c2cccnc2Oc2ccc(F)cc2)CC1  225 to 226 °C
2  Cc1noc2ccc(Oc3ncccc3C(=O)NCC3CCC(C(C)(C)O)CC3)cc12 (stereo not shown)  135 to 137 °C
3  O=C(NCc1ccc(N2CCCC2)cc1)c1cccnc1Oc1ccc(F)cc1  127 to 128 °C
4  CC(=O)c1ccc(Oc2ncccc2C(=O)NCc2ccc(C(C)(C)O)cc2)cc1    95 to 97 °C
5  CCC(O)(CC)c1ccc(CNC(=O)c2cccnc2Oc2ccc(F)cc2)s1    95 to 97 °C
6       O=C(NCc1ccc(Cl)s1)c1cccnc1Oc1cccnc1  110 to 112 °C
7  CC(C)(O)c1cc(Cl)c(CNC(=O)c2cccnc2Oc2ccc(F)cc2)s1    85 to 87 °C
8  O=C(NCc1ccc2c(c1)OCCC2O)c1cccnc1Oc1cccnc1 (stereo not shown)  134 to 136 °C

The recorded melting point for O=C(NCc1ccc(Cl)o1)c1cccnc1Oc1cccnc1 is 80 to 82 °C

The recorded melting point for CCOC(=O)C1CCC(CNC(=O)c2cccnc2Oc2cccc(C(N)=O)c2)CC1 (stereo not shown) is 160 to 162 °C

The recorded melting point for N#Cc1cccc(Oc2ncccc2C(=O)NCc2ccc(Cl)s2)c1 is 145 to 147 °C

The recorded melting point for Cc1cnc(CNC(=O)c2cccnc2Oc2ccc(F)cc2)cn1 is 159 °C

The recorded melting point for Cc1ccc(C(C)NC(=O)c2cccnc2Oc2cccnc2)s1 (stereo not shown) is 162 to 164 °C

The recorded melting point for Cc1ccc(CNC(=O)c2cccnc2Oc2cccnc2)cc1 is 91 to 93 °C

The recorded melting point for NS(=O)(=O)N1CCC(CNC(=O)c2cccnc2Oc2cccnc2)CC1 is 165 to 166 °C

The recorded melting point for O=C(NCc1ccccc1Cl)c1cccnc1OCc1ccc(F)cc1 is 64 to 66 °C

The recorded melting point for O=C(NCc1ccc(OC(F)F)cc1)c1cccnc1Oc1cccnc1 is 91 to 93 °C

The recorded melting point for Cc1cc(CNC(=O)c2cccnc2Oc2ccc(F)cc2)cc(C)c1O is 142 to 144 °C

The recorded melting point for O=C(Nc1cccc(Oc2ncccc2C(=O)NCc2ccccc2Cl)c1)Nc1cccc2ccccc12 is 121 to 123 °C
